# Tested on: P. knowlesi A1H1
# Test name: Plasmodium lactate dehydrogenase
# Assay type: cell-based, Plasmodium knowlesi
# Cond: IC50 WRL-68 / EC50 PkA1H1
So basically: Selectivity index (SI) P. knowlesi at 0.5 or higher? That is class 1. Lower than 0.5? That is class 0.

O=C(/C=C/c1ccc(O)c(CN2CCOCC2)c1)c1ccc(F)cc1 [Compound 2b] | class 1

Quick check, Selectivity index (SI) P. knowlesi >= 0.5? O=C(/C=C/c1ccc(O)cc1)c1ccc(F)cc1 [Compound 1b]
class 0

Quick check, Selectivity index (SI) P. knowlesi >= 0.5? O=C(/C=C/c1ccc(O)c(CN2CCCCC2)c1)c1ccc(F)cc1 [Compound 2c]
class 1

Quick check, Selectivity index (SI) P. knowlesi >= 0.5? CC1CCN(Cc2cc(/C=C/C(=O)c3ccc(Cl)cc3)ccc2O)CC1 [Compound 2f]
class 1

Quick check, Selectivity index (SI) P. knowlesi >= 0.5? O=C(/C=C/c1ccc(O)cc1)c1ccc(Cl)cc1 [Compound 1c]
class 1

Quick check, Selectivity index (SI) P. knowlesi >= 0.5? O=C(/C=C/c1ccc(CN2CCCCC2)c(O)c1)c1ccc(F)cc1 [Compound 2a]
class 1

Quick check, Selectivity index (SI) P. knowlesi >= 0.5? O=C(/C=C/c1cccc(O)c1)c1ccc(Cl)cc1 [Compound 1d]
class 0

Quick check, Selectivity index (SI) P. knowlesi >= 0.5? CC1CCN(Cc2ccc(/C=C/C(=O)c3ccc(Cl)cc3)cc2O)CC1 [Compound 2g]
class 0

Quick check, Selectivity index (SI) P. knowlesi >= 0.5? O=C(/C=C/c1cccc(O)c1)c1ccc(F)cc1 [Compound 1a]
class 1

Quick check, Selectivity index (SI) P. knowlesi >= 0.5? CCN(CC)CCCC(C)Nc1ccnc2cc(Cl)ccc12 (stereo not shown) [CQ, chloroquine diphosphate, reference compound]
class 1
